# study-target: Lactase/phlorizin hydrolase (Rattus norvegicus)
# Sequence (Q02401 868-1928 limits assumed): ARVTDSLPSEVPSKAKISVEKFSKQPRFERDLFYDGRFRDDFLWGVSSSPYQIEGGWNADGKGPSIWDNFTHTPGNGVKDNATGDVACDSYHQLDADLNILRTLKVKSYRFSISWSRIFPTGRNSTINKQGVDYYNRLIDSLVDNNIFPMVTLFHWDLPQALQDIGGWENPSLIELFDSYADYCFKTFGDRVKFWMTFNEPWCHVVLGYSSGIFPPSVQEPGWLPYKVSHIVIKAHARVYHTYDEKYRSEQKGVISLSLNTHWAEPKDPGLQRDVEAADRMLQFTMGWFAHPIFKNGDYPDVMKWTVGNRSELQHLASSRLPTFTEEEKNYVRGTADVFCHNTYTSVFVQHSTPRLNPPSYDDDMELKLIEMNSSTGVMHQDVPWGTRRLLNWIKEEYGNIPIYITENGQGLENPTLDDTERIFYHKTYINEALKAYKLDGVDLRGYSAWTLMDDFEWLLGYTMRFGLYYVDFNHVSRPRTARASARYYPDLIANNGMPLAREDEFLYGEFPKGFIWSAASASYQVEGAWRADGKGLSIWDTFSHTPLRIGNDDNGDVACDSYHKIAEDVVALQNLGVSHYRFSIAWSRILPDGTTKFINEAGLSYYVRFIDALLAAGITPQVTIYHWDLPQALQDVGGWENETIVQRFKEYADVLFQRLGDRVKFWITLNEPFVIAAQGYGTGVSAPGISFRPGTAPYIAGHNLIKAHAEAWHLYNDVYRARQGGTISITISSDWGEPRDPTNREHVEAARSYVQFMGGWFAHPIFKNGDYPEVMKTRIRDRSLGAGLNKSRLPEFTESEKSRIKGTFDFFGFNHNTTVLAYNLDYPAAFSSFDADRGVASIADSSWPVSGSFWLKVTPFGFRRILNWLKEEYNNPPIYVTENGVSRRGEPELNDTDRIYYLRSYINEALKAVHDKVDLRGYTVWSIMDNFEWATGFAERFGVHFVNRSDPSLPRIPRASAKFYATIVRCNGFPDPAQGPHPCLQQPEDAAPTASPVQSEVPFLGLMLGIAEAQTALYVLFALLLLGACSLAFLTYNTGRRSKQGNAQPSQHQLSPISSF
# assay-procedure: Inhibition of rat intestinal lactase assessed as production of p-nitrophenol by spectrophotometry
pIC50: −log10 of the molar value.
Assign class by pIC50: not lower than 4 means Y; lower than 4 means N.

{"substance-smiles": "OC[C@H]1NCC[C@H](O)[C@@H]1O", "classification": "Y"}
{"substance-smiles": "OC[C@H]1CNC[C@@H](O)[C@@H]1O", "classification": "Y"}

Problem: Is it the case that `OC[C@@H]1CNC[C@H](O)[C@H]1O` has pIC50 reaching or exceeding 4?
Result: Y

Problem: Could you please find out whether `OC[C@@H]1CNC[C@@H](O)[C@@H]1O` has pIC50 that meets 4 or exceeds it?
Result: N

Problem: Check if pIC50 >= 4 (inclusive). Item: `OC[C@H]1CNC[C@H](O)[C@H]1O`
Result: N

Problem: Please tell me: is the compound `OC[C@H]1CNC[C@@H](O)[C@H]1O` at or over 4 in terms of pIC50?
Result: Y

Problem: I'd appreciate it if you could say whether `OC[C@@H]1CNC[C@@H](O)[C@H]1O` has pIC50 at least equal to 4.
Result: N

Problem: State whether the measured pIC50 reaches 4, counting equality as reaching it, for `OC[C@H]1CNC[C@H](O)[C@@H]1O`
Result: Y

###

Known IC50 of a selection of compounds
# study-target: UniProtKB P23739
# assay-procedure: Inhibition of rat intestinal isomaltase assessed as production of p-nitrophenol at by spectrophotometry
Entry rule: numbers only, all in µM.

{"substance-smiles": "OC[C@H]1NCC[C@@H](O)[C@@H]1O", "study-target": "UniProtKB P23739", "IC50, µM": 37}

Okay, next one:
According to the records, this compound `OC[C@H]1CNC[C@@H](O)[C@@H]1O` displays IC50 of 290

###

# inhibition per entry
# study-target: UniProt:Q58D55
# Sequence (Q58D55 whole entry): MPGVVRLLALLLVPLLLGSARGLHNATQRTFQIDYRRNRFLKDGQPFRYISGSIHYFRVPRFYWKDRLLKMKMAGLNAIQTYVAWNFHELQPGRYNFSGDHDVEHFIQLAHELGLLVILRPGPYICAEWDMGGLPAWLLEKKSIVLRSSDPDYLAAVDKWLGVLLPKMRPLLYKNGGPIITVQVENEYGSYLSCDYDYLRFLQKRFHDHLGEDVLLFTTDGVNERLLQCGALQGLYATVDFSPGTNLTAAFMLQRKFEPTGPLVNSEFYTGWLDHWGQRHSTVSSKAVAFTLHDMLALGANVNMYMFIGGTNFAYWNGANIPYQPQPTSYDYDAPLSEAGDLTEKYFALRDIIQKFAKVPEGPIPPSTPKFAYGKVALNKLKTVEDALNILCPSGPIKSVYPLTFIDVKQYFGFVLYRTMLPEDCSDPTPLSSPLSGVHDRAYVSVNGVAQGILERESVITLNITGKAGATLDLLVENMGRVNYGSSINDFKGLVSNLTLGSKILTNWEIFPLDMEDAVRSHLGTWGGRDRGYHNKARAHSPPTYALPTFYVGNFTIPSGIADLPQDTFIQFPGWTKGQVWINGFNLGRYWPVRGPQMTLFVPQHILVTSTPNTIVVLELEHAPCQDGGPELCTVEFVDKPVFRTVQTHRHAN
# assay-procedure: Inhibition of bovine liver beta-galactosidase assessed as production of p-nitrophenol at 1000 uM by spectrophotometry

{"substance-smiles": "OC[C@@H]1NCC[C@@H](O)[C@@H]1O", "inhibition": "< 50%"}
{"substance-smiles": "OC[C@H]1CNC[C@H](O)[C@@H]1O", "inhibition": "< 50%"}
{"substance-smiles": "OC[C@@H]1CNC[C@H](O)[C@@H]1O", "inhibition": "< 50%"}
{"substance-smiles": "OC[C@H]1CNC[C@H](O)[C@H]1O", "inhibition": "< 50%"}

Short answer for `OC[C@@H]1NCC[C@H](O)[C@H]1O` : inhibition was < 50%

# inhibition (compound: `OC[C@@H]1CNC[C@@H](O)[C@H]1O` ) is < 50%

So, `OC[C@H]1NCC[C@@H](O)[C@H]1O` ? Its inhibition was < 50%

Summary for this compound, `OC[C@H]1NCC[C@H](O)[C@H]1O` : inhibition is < 50%

In plain terms, `OC[C@@H]1NCC[C@H](O)[C@@H]1O` has a documented inhibition of < 50%

###

Recorded pIC50 by entry
# study-target: Sucrase-isomaltase, intestinal (Rattus norvegicus)
# Sequence (P23739 1-1013 limits assumed): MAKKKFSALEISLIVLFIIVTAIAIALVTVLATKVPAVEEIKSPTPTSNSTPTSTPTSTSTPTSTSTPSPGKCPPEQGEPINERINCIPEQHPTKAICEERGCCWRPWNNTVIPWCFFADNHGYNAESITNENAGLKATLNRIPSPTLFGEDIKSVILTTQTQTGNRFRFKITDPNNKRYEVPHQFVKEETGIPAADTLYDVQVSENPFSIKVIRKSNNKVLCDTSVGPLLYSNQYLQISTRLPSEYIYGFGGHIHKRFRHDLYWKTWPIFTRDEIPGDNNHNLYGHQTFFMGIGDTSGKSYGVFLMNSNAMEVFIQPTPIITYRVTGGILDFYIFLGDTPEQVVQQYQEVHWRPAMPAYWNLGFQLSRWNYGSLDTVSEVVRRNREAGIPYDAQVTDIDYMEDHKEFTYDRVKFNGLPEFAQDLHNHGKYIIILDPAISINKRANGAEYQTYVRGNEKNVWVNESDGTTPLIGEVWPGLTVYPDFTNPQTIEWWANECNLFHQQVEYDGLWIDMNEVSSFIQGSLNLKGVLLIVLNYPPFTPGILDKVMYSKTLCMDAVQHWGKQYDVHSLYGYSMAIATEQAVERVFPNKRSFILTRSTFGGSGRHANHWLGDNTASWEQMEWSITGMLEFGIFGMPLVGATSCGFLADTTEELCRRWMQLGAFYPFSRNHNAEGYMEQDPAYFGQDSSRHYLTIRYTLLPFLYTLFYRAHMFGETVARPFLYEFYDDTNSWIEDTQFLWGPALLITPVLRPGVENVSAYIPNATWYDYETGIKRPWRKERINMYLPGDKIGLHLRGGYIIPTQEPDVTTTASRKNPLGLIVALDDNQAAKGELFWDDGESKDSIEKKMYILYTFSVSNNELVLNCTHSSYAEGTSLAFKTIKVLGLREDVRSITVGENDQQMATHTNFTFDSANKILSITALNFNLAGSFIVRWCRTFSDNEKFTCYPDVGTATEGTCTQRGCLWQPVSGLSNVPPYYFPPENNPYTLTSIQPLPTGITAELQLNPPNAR
# Sequence (P23739 1014-1841 limits assumed): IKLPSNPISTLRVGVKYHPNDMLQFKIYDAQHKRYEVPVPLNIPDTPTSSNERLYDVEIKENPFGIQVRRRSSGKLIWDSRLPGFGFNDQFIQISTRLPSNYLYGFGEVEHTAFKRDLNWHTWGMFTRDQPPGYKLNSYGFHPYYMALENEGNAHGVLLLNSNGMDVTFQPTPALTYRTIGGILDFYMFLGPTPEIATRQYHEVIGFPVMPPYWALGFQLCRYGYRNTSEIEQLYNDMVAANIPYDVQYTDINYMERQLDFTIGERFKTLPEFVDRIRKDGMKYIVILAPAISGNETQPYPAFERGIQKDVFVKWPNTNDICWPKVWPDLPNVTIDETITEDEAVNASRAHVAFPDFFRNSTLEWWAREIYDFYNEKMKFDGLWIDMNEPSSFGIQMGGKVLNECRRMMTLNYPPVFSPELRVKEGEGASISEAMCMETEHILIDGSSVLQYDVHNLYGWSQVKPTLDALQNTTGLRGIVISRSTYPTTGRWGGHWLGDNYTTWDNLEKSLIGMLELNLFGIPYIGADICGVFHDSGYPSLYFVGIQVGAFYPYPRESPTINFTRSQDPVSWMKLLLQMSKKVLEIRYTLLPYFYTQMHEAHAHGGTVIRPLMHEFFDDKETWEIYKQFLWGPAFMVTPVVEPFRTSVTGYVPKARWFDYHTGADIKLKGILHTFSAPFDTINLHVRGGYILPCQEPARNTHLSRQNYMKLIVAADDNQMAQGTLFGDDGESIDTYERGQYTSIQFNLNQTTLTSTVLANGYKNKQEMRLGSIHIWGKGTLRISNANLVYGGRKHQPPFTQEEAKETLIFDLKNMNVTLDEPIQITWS
# assay-procedure: Inhibition of rat intestinal sucrase assessed as release of D-glucose at by spectrophotometry
Scale for pIC50: -log10 of concentration given in mol/L; no unit attached.

Example entries and their recorded answers appear below.
{"molecule": "OC[C@H]1CNC[C@@H](O)[C@@H]1O [AFEGOSTAT]", "study-target": "Sucrase-isomaltase, intestinal (Rattus norvegicus)", "property-name": "pIC50", "readout-value": 3.27}
{"molecule": "OC[C@@H]1CNC[C@H](O)[C@H]1O", "study-target": "Sucrase-isomaltase, intestinal (Rattus norvegicus)", "property-name": "pIC50", "readout-value": 4.47}
{"molecule": "OC[C@@H]1NCC[C@@H](O)[C@H]1O", "study-target": "Sucrase-isomaltase, intestinal (Rattus norvegicus)", "property-name": "pIC50", "readout-value": 3.65}

Form field pIC50, entry OC[C@H]1NCC[C@@H](O)[C@@H]1O [FAGOMINE] : 4.47

###

Entries and their pIC50
# assay-procedure: Inhibition of rat intestinal maltase assessed as production of D-glucose using maltose as substrate after 10 to 30 mins by spectrophotometry
// pIC50 is dimensionless: -log10 of concentration (M)

Some entries whose results are on file:
{"compound": "OC[C@H]1NC[C@H](O)[C@@H](O)[C@@H]1O [DUVOGLUSTAT]", "pIC50": 6.19}
{"compound": "OC[C@H]1NCC[C@@H](O)[C@@H]1O [FAGOMINE]", "pIC50": 3.95}
{"compound": "OC[C@@H]1NCC[C@@H](O)[C@H]1O", "pIC50": 3.45}

pIC50 recorded for this compound, `OC[C@@H]1NCC[C@@H](O)[C@@H]1O` , is 3.18

Entry OC[C@H]1CNC[C@@H](O)[C@@H]1O [AFEGOSTAT] ; pIC50 = 3.19

Entry under test: `OC[C@@H]1NC[C@@H](O)[C@H](O)[C@H]1O` . Its pIC50 was 4.55

###

# System: Prunus dulcis
# particulars: 1000 uM
Here the recorded inhibition is given for each entry.

Use the examples below as a reference point.
{"compound": "OC[C@H]1NCC[C@@H](O)[C@@H]1O [FAGOMINE]", "inhibition": "< 50%"}
{"compound": "OC[C@@H]1CNC[C@@H](O)[C@@H]1O", "inhibition": "< 50%"}
{"compound": "OC[C@@H]1NCC[C@@H](O)[C@@H]1O", "inhibition": "< 50%"}
{"compound": "OC[C@H]1NCC[C@@H](O)[C@H]1O", "inhibition": "< 50%"}
{"compound": "OC[C@@H]1NCC[C@H](O)[C@@H]1O", "inhibition": "< 50%"}
{"compound": "OC[C@@H]1NCC[C@@H](O)[C@H]1O", "inhibition": "< 50%"}

The recorded inhibition for entry `OC[C@H]1NCC[C@H](O)[C@H]1O` equals < 50%

Note to self: inhibition recorded for `OC[C@@H]1NCC[C@H](O)[C@H]1O` was < 50%

Form: compound = `OC[C@@H]1CNC[C@@H](O)[C@H]1O` ; inhibition = < 50%

So, `OC[C@H]1CNC[C@H](O)[C@H]1O` ? Its inhibition was < 50%

###

# assay-procedure: Inhibition of almond beta-glucosidase assessed as production of p-nitrophenol using p-nitrophenyl glycoside as substrate by spectrophotometry
property-name: pIC50
Note on pIC50: it is the negative log10 of concentration, concentration in mol/L.

Record `OC[C@@H]1NC[C@@H](O)[C@H](O)[C@H]1O` , field pIC50: 3.01

Record summary for `OC[C@H]1CNC[C@@H](O)[C@H]1O` : reported pIC50 = 5.49

According to the records, this compound `OC[C@H]1NCC[C@H](O)[C@@H]1O` displays pIC50 of 3.92

// pIC50 value for `OC[C@H]1NC[C@H](O)[C@@H](O)[C@@H]1O` : 4.10

The compound listed as `OC[C@@H]1CNC[C@H](O)[C@@H]1O` has a reported pIC50 of 3.01

Record summary for `OC[C@@H]1CNC[C@H](O)[C@H]1O` : reported pIC50 = 3.63

Lab note: measured pIC50 of `OC[C@H]1CNC[C@@H](O)[C@@H]1O` was 6.01

// pIC50 lookup, compound = `OC[C@H]1CNC[C@H](O)[C@@H]1O` , result: 3.35
